Sourced from ChEMBL document CHEMBL1201862

- Tested on: ACHN
- method: NCI tumour cell line growth inhibition, 48 h
Calls of active or inactive are those of the source. No stated cut-off is given here; in the data, active = GI50 up to about 1.1 µM and inactive = higher.
Can you answer with just one of these options? active, inactive

compound | tested-system | label-class
CCN(CC)c1ccc2cc3ccc(N(CC)CC)cc3[o+]c2c1 | ACHN | inactive
c1c2c(cc(-n3nnc4c3CCCCCC4)c1-n1nnc3c1CCCCCC3)CCCCCC2 | ACHN | inactive
CC(=O)O[C@@H]1[C@H]2[C@@H](OC(=O)c3ccccc3)[C@@H](C)C[C@]2(O)[C@H](OC(C)=O)[C@@]2(C)[C@@H]3C[C@@](C)(OC(C)=O)C[C@@H](OC(C)=O)[C@@]3(OC(C)=O)C[C@@]12C | ACHN | inactive
Cc1c2cnccc2c(C)c2c1c1ccccc1n2CCOC(=O)c1ccccc1 | ACHN | inactive
O=C1C([N-]S(=O)(=O)c2ccccc2)=C([n+]2ccc(Cc3ccccc3)cc2)C(=O)c2ccccc21 | ACHN | inactive

-- ask State the result this test recorded for O=C(Nc1ccc2cc3ccccc3cc2c1)c1cc2c(cc1Cl)Sc1nccn1S2(=O)=O .
-- reply inactive

-- ask State the result this test recorded for Cc1cc2c(c(C#N)c1C)NC(=O)C(CC(=O)O)C2=O (stereo not given) .
-- reply inactive

###

Give measured GI50 for each item. Keep answers brief.
- System: K562
- method: NCI tumour cell line growth inhibition, 48 h
Calls of active or inactive are those of the source. Rule as the data show it: active = GI50 up to about 1.1 µM and inactive = higher.

Answered cases to consult:
compound | observed
C1=N\CCNCC/N=C\c2ccc(cc2)OCc2cccc(n2)COc2ccc/1cc2 | > 100 µM (inactive)
CCC(=O)OCOc1ccc(/C=C2\CCC(CN(C)C)C2=O)cc1 (stereo not given) | 1.85 µM (inactive)
Oc1ccc(-c2cc(-c3c(O)cc(O)cc3O)on2)cc1 | 40.5 µM (inactive)
CSc1csc(-c2ccc(-c3ccc(-c4cc(SC)cs4)s3)s2)c1 | > 100 µM (inactive)
Cc1ccc([N+](=O)[O-])cc1S(=O)(=O)Nc1ccc(C2=NN(S(=O)(=O)c3cc([N+](=O)[O-])ccc3C)C(c3cccs3)C2)cc1 (stereo not given) | 24.2 µM (inactive)

Would you be so kind as to report GI50 for each listed record?
1. CCCC/C=C/C/C=C/CCCCCCCCC(=O)OCC1CCCN2CCCCC12 (stereo not given)
2. c1ccc(CCCC2Sc3cccc4cccc(c34)S2)cc1

-- reply
1. > 100 µM (inactive)
2. > 100 µM (inactive)

Would you be so kind as to report GI50 for each listed record?
1. CC1/C=C/C=C/CC/C=C/C=C/C=C/C=C/C(OC2OC(C)C(O)C(N)C2O)CC2OC(CC(O)C(O)CCC(O)CC(O)CC(O)CC(=O)OC(C)C(C)C1O)CC(O)C2C(=O)O (stereo not given)
2. CC12CC[C@H](O)C(C)(C)[C@H]1CC[C@](C)(O)C2COc1ccc2ccc(=O)oc2c1 (stereo not given in full)

-- reply
["34.4 µM (inactive)", "71 µM (inactive)"]

Would you be so kind as to report GI50 for each listed record?
1. COC(=O)NN1C(C)=C(C(=O)OC)C2(CCOC2=O)C1(C)O (stereo not given)
2. Nc1ccccc1/N=C/c1cc2cc([N+](=O)[O-])ccc2s1
3. CC12CC(c3ccccc3O1)C(C(=O)Nc1cccc(F)c1)C(=O)N2 (stereo not given)

-- reply
1: > 100 µM (inactive); 2: 12.7 µM (inactive); 3: 35.4 µM (inactive)

Would you be so kind as to report GI50 for each listed record?
1. O=C1Oc2ccccc2C(=O)/C1=C\Nc1nc(-c2ccccc2)cs1
2. CCOP(=O)(/C=C\n1cc(C)c(=O)[nH]c1=O)OCC
3. Cc1cc(C)c(S(=O)(=O)N(CCCCN)OCCCN)c(C)c1

-- reply
1. 7.66 µM (inactive)
2. > 100 µM (inactive)
3. 13.9 µM (inactive)

###

- Tested on: RPMI-8226
- method: NCI tumour cell line growth inhibition, 48 h
The source made the active and inactive calls. Rule as the data show it: active = GI50 up to about 1.1 µM and inactive = higher.
Give measured GI50 for each item. Keep answers brief.

Answered cases to consult:
compound | GI50
NC(CCCC(N)P(=O)(O)O)P(=O)(O)O (stereo unspecified) | > 100 µM (inactive)
C/C(=N\Nc1nc2ccccc2[nH]1)c1cccc[n+]1[O-] | > 100 µM (inactive)

Would you be so kind as to report GI50 for each listed record?
1. CC(C)C(N)=O [ISOBUTYRAMIDE]
2. C(=N\N=C1NCCCN1)/c1ccc2ccccc2c1
3. CC1C(=O)C(C)C(c2cccs2)N(N=O)C1c1cccs1 (stereo unspecified)
4. COc1ccc(/C=N/Nc2nnc3c(n2)c2ccccc2c2nn(-c4ccccc4Cl)nc23)cc1
5. COc1ccc(C2=Nn3c(C)nnc3S/C2=C\c2ccc(-c3ccc([N+](=O)[O-])cc3)o2)cc1
6. Cn1c(-c2ccc[se]2)ccc1-c1ccc(CO)[se]1
7. CC(=O)Oc1ccc2c(-c3ccccc3)c(Oc3ccc(Cl)cc3)c(=O)oc2c1

-- reply
1. > 5000 µM (inactive)
2. 4.7 µM (inactive)
3. > 100 µM (inactive)
4. > 100 µM (inactive)
5. 3.22 µM (inactive)
6. 1.28 µM (inactive)
7. 47.1 µM (inactive)

Would you be so kind as to report GI50 for each listed record?
1. CNC(=O)c1ccc(C(=O)NCCCCCN(O)C(=O)CCC(=O)NCCCCCN(O)C(=O)CCC(=O)NCCCCCN(O)C(C)=O)c(O)c1O
2. COc1ccc(/C=C(/c2ccc(OC)cc2)c2c(Cl)cc(Cl)c(/C(=C\c3ccc(OC)cc3)c3ccc(OC)cc3)c2/N=N/c2ccccc2)cc1
3. COC(=O)C(Cc1nc2ccc(Cl)cc2nc1O)/C(=N/NC(N)=O)C(=O)Nc1ccc(Cl)cc1 (stereo unspecified)

-- reply
1: 38.5 µM (inactive); 2: > 100 µM (inactive); 3: > 100 µM (inactive)

###

- Tested on: SNB-19
- method: NCI tumour cell line growth inhibition, 48 h
Active and inactive are the calls of the source. Rule as the data show it: active = GI50 up to about 1.1 µM and inactive = higher.
Can you answer with just one of these options? true for active, false for inactive

These solved cases illustrate the format of a correct answer.
molecule | label-class
NC(=S)N/N=C1\CCCC1C(O)(C(F)(F)Cl)C(F)(F)Cl (stereo not drawn) | false
CCOC(=O)c1cc(/C=C/C(C)=C/C(=O)OC)n(C)c1C | false

Now take the following molecule into account.
-- ask State the result this test recorded for Cc1cccc(/C=N\NC(=S)N2CCCCC2)n1 .
-- reply true

###

- System: M14
- method: NCI tumour cell line growth inhibition, 48 h
Active and inactive are the calls of the source. Rule as the data show it: active = GI50 up to about 1.1 µM and inactive = higher.
reported-property: GI50

Answered cases to consult:
molecule | reported-property | observed
Cc1ccc(/C=C2\CCCc3ccccc3C2=O)cc1 | GI50 | 3.21 µM (inactive)
CC(C)C(N)=O [ISOBUTYRAMIDE] | GI50 | > 5000 µM (inactive)
CSc1csc(-c2ccc(-c3ccc(-c4cc(SC)cs4)s3)s2)c1 | GI50 | > 100 µM (inactive)
CCOC(=O)CCSc1nc2ccc(I)cc2c(=O)n1Cc1ccccc1 | GI50 | 24.5 µM (inactive)
Cc1cc(NC(=S)SCc2ccc(F)cc2)c([N+](=O)[O-])cc1C | GI50 | 35.5 µM (inactive)

Would you be so kind as to report GI50 for each listed record?
1. CC(C)NCCNC(=O)c1ccccc1Nc1c(Cl)cccc1Cl
2. CC1C[C@@H]2C(=O)NC(=O)[C@@H]2c2c1c1ccccc1n2C (stereo partly drawn)
3. CN(C(=N)c1ccccc1)c1ccccc1

-- reply
1: 11.5 µM (inactive); 2: > 100 µM (inactive); 3: > 100 µM (inactive)

Would you be so kind as to report GI50 for each listed record?
1. CC(C)=CCN1CC(C)C(=O)Nc2ccccc21 (stereo not drawn)
2. CN(C)CC1CCCC(CN2CCCCC2)C1=O (stereo not drawn)
3. CCCc1c(O)c(=O)c2c(OC)cc(OC)c3c4c(OC)cc(OC)c5c(=O)c(O)c(CCC)c(c1c23)c54
4. Cc1csc(NCc2ccc(Cl)cc2)n1

-- reply
["> 100 µM (inactive)", "7.73 µM (inactive)", "0.755 µM (active)", "45.7 µM (inactive)"]

Would you be so kind as to report GI50 for each listed record?
1. CCCCCCCCCCCCCCCCCCOP1(=O)OCCO1
2. CCOC(=O)C1(C(=O)OCC)C[C@H](C)[C@](C)(O)C1
3. COC(=O)C1CC2C=CC=CC(=O)C2(C)C1 (stereo not drawn)

-- reply
["> 100 µM (inactive)", "> 100 µM (inactive)", "30.5 µM (inactive)"]

###

- System: HOP-62
- method: NCI tumour cell line growth inhibition, 48 h
The source made the active and inactive calls. Rule as the data show it: active = GI50 up to about 1.1 µM and inactive = higher.
Give measured GI50 for each item. Keep answers brief.

Answered cases to consult:
molecule | GI50
CC(=O)c1ccc(NC(=O)COC(=O)c2cccc3c(=O)c4ccccc4[nH]c23)cc1 | 31.5 µM (inactive)
COC(=O)C(=O)C1(CCC(C)=O)c2ccccc2-c2c(C)ccc(C)c21 (stereo unspecified) | 53 µM (inactive)
NC1CC(=O)c2cc(Br)sc21 (stereo unspecified) | > 100 µM (inactive)
COC(=O)C1CC2C=CC=CC(=O)C2(C)C1 (stereo unspecified) | > 100 µM (inactive)
CC1=C(c2cc(C(=O)Nc3nccs3)nc(NC#N)n2)Sc2ccccc2N1 | > 100 µM (inactive)

Would you be so kind as to report GI50 for each listed record?
1. CC12CP(=O)(c3ccccc3)CC1c1ccccc1C2c1ccccc1 (stereo unspecified)
2. COC(=O)/C=C1\C(=O)N(C(C)=O)c2ccc(Br)cc21
3. C1=N\CCNCC/N=C\c2ccc(cc2)OCc2cccc(n2)COc2ccc/1cc2
4. Cc1cccc(NC(=S)Nc2cccc(Cl)c2)n1
5. COc1cc2c(cc1OC)/C(=C\c1ccccc1N)C(=O)OC2
6. CC(C)=CCC[C@](C)(O[C@@H]1O[C@H](CO)[C@@H](O)[C@H](O)[C@H]1O)[C@H]1CC[C@]2(C)[C@@H]1[C@H](O)C[C@@H]1[C@@]3(C)CC[C@H](O)C(C)(C)[C@@H]3[C@@H](O[C@@H]3O[C@H](CO)[C@@H](O)[C@H](O)[C@H]3O)C[C@]12C [GINSENOSIDE RG1]

-- reply
18.5 µM (inactive)
13.2 µM (inactive)
21.4 µM (inactive)
39.4 µM (inactive)
23.3 µM (inactive)
> 100 µM (inactive)
